Entry source: patent US12134608B2

Target: hERG channel (Homo sapiens, UniProt Q12809)
Sequence (Q12809 whole entry): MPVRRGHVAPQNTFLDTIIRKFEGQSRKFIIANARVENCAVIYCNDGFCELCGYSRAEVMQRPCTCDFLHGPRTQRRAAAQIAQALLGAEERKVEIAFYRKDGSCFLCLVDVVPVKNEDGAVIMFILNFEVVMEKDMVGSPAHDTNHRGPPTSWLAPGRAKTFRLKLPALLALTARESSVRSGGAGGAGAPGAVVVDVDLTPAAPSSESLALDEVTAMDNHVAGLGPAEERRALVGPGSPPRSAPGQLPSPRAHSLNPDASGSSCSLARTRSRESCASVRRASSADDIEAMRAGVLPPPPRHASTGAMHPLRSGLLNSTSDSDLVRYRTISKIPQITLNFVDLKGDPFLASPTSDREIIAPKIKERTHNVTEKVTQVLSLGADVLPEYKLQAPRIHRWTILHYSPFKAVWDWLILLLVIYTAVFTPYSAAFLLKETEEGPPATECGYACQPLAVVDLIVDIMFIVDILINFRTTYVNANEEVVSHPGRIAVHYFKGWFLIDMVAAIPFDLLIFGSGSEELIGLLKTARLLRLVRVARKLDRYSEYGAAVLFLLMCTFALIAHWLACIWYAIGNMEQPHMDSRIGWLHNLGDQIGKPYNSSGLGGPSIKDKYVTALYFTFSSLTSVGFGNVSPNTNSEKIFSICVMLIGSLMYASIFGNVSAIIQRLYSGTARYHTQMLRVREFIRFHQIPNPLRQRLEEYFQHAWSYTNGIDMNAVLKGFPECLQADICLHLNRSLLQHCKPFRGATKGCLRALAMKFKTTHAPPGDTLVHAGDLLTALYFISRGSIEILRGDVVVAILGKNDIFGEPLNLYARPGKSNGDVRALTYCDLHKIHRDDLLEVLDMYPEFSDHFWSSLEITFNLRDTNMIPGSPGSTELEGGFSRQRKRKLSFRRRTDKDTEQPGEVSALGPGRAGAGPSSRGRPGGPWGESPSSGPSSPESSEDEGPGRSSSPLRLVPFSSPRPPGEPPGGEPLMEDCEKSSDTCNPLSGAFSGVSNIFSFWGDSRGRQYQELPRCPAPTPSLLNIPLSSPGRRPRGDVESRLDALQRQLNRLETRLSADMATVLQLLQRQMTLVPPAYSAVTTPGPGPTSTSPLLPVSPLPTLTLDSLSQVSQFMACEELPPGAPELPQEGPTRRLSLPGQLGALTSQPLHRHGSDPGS
Assay: hERG competition binding
Settings: eutomers of the invention and their distomers
Assignment: determine reported pKi for the given compounds.
Lab note: report pKi as minus log10 of the concentration in molar units, number only.

Per the records, this compound ( CN1CCC(OC(c2nc3cc(F)ccc3[nH]2)c2ccccc2O)CC1 (single isomer, unassigned) [Example 5 Distomer A] ) has pKi equal to 6.19

Per the records, this compound ( Cc1c(Cl)ccc2nc(C(OC3CCN(C)CC3)c3ccccc3O)[nH]c12 (single isomer, unassigned) [Example 7 Distomer A] ) has pKi equal to 6.23

Per the records, this compound ( CN1CCC(OC(c2nc3ccc(Cl)c(F)c3[nH]2)c2ccccc2O)CC1 (single isomer, unassigned) [Example 3 Distomer A] ) has pKi equal to 6.11

Per the records, this compound ( Cc1cccc2nc(C(OC3CCN(C)CC3)c3ccccc3O)[nH]c12 (single isomer, unassigned) [Example 4] ) has pKi equal to 4.67

Per the records, this compound ( Cc1c(Cl)ccc2nc(C(OC3CCN(C)CC3)c3ccccc3O)[nH]c12 (single isomer, unassigned) [Example 7] ) has pKi equal to 5.52

Per the records, this compound ( CN1CCC(OC(c2nc3ccccc3[nH]2)c2cccc(F)c2O)CC1 (single isomer, unassigned) [Example 1 Distomer A] ) has pKi equal to 5.38

Per the records, this compound ( CN1CCC(OC(c2nc3cc(F)ccc3[nH]2)c2ccccc2O)CC1 (single isomer, unassigned) [Example 5] ) has pKi equal to 5.49

Per the records, this compound ( CN1CCC(OC(c2nc3ccc(Cl)c(F)c3[nH]2)c2ccccc2O)CC1 (single isomer, unassigned) [Example 3] ) has pKi equal to 5.59

Per the records, this compound ( Cc1cccc2nc(C(OC3CCN(C)CC3)c3ccccc3O)[nH]c12 (single isomer, unassigned) [Example 4 Distomer A] ) has pKi equal to 5.56

Per the records, this compound ( CN1CCC(O[C@H](c2nc3ccccc3[nH]2)c2cccc(F)c2O)CC1 [Example 1] ) has pKi equal to 4.94

Per the records, this compound ( CN1CCC(OC(c2nc3cccc(Cl)c3[nH]2)c2ccccc2O)CC1 (single isomer, unassigned) [Example 6 Distomer A] ) has pKi equal to 5.83

Per the records, this compound ( CN1CCC(OC(c2nc3cccc(Cl)c3[nH]2)c2ccccc2O)CC1 (single isomer, unassigned) [Example 6] ) has pKi equal to 4.90
